# ASSAYED SYSTEM: cathepsin K (Homo sapiens)
# Sequence (P43235 115-329): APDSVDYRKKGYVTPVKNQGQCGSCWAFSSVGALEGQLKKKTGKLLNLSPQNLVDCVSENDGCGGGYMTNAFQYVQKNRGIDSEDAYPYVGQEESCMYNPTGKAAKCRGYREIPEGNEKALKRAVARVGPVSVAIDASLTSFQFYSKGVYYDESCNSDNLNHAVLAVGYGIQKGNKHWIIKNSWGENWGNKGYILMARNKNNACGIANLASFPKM
# EXPERIMENT DESCRIPTION: Determination of cathepsin K proteolytic catalytic activity; inhibition studies (progress curve method)
# TEST CONTEXT: human recombinant enzyme, fluorogenic substrate Cbz-Phe-Arg-AMC, pH 5.5
REPORTED ENDPOINT: Ki

**Query** Requested read-out: Ki. Entry: CC(C)C[C@H](NS(=O)(=O)c1cccc2cccnc12)C(=O)NC1COCC1=O (mixture of isomers)
**Result** > 10 µM

Data provenance: patent US20040180927A1
